// values below are reported Estimated T½
- assaySystem: T1, human glycophorin A on human red blood cells or red blood cell membranes (human, UniProt P02724 20-150)
- T1 construct: whole, on cells; also called hRBC; human RBC membranes
- T1 sequence (looked up): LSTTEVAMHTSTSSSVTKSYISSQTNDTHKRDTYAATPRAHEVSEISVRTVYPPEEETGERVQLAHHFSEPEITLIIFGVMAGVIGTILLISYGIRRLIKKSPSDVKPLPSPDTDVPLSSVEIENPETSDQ
- assayNotes: SPR (Biacore), Fab on human RBC membranes; T½ = 0.69/kd
Entry rule: numbers only, all in min.

For orientation, consider the following solved cases.
[
  {
    "binder": "TPP-7782, affinity matured 6C12 Fab (Fab, V domains shown, Tested as Fab) VH: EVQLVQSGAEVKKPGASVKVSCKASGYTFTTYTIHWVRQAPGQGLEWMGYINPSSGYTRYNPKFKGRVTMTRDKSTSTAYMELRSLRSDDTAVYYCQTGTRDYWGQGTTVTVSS VL: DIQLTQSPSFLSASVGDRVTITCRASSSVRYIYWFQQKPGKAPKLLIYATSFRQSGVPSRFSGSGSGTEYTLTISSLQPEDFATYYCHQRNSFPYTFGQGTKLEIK",
    "Estimated T½, min": 28
  },
  {
    "binder": "TPP-7781, affinity matured 6C12 Fab (Fab, V domains shown, Tested as Fab) VH: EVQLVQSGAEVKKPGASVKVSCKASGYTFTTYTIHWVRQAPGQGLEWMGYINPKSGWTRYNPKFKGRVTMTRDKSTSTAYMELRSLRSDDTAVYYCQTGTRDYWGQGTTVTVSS VL: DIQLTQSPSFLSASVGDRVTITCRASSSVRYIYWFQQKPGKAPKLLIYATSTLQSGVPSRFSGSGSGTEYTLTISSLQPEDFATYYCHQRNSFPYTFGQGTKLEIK",
    "Estimated T½, min": 21
  }
]

Please examine the following record next.
Request the reported Estimated T½ associated with TPP-7796, affinity matured 6C12 Fab (Fab, V domains shown, Tested as Fab) VH: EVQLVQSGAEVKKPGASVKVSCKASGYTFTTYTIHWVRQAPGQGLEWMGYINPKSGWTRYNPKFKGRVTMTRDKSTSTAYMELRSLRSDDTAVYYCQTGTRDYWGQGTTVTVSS VL: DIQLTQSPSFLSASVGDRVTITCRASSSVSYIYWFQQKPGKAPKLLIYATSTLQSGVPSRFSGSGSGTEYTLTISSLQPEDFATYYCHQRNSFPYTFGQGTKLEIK 5
